Each recorded value in this set is attributed to patent US11459312B2.

- Tested system: AHR (Homo sapiens)
- Sequence (P35869 11-848): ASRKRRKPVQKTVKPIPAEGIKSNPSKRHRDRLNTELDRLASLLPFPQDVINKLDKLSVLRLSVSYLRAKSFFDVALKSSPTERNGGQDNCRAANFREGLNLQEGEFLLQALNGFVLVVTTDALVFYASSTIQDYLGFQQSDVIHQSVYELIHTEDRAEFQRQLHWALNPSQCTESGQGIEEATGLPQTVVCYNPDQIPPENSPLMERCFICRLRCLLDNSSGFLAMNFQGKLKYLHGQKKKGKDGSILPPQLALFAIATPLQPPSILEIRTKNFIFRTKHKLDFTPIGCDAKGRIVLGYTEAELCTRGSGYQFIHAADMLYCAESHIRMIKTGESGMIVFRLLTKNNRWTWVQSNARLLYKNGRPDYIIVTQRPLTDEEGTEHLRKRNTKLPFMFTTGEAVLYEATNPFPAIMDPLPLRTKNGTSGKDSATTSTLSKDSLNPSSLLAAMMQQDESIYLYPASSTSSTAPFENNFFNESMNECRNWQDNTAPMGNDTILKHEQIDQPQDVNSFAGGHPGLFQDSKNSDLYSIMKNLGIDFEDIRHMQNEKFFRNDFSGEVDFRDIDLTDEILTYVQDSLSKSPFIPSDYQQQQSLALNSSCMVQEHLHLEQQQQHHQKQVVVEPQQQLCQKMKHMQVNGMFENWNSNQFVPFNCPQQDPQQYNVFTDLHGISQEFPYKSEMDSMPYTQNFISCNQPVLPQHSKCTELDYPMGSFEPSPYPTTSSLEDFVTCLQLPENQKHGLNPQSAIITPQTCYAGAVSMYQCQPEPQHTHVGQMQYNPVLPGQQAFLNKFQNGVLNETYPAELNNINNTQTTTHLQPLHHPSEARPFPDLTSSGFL
- Assay remarks: In vitro assay 1: AHR-luc transactivation assay, antagonism in human cell line (U87 glioblastoma cells, kynurenic acid prestimulated)
- Type: cell-based
- Set-up: U87 glioblastoma cells (ATCC) endogenously expressing AHR; host or cells: U87 glioblastoma cells, stably transfected with DRE-firefly luciferase and renilla reporter constructs only
- Condition: firefly luciferase DRE reporter, 150 μM kynurenic acid, 20 hours, read-out: Assay 1: AHR-luc Hum Antagonism IC50
Observable: IC50 (nM)

These recorded examples may help you get a feel for the data.
Compound	IC50 / nM
O=C(N[C@H]1CS(=O)(=O)C[C@H]1O)c1cc(-c2ccc(Cl)cc2)nn(-c2cccc(F)c2)c1=O (single isomer, unassigned) [Example 57]	5.77
O=C(N[C@@H]1CS(=O)(=O)C[C@@H]1O)c1cc(-c2ccc(C(F)(F)F)nc2)nn(-c2cccc(F)c2)c1=O (single isomer, unassigned) [Example 21]	205
Cn1cc(-n2nc(-c3ccc(C(F)(F)F)cc3)cc(C(=O)N[C@@H]3C[S+]([O-])C[C@@H]3O)c2=O)cn1 (relative stereo) [Example 32]	41.6
O=C(N[C@@H]1CS(=O)(=O)C[C@@H]1O)c1cc(-c2ccc(C(F)(F)F)cc2)nn(-c2cccnc2)c1=O (single isomer, unassigned) [Example 18]	38.2
C[C@@H](CS(C)(=O)=NC(=O)C(F)(F)F)NC(=O)c1cc(-c2ccc(C(F)(F)F)cc2)nn(-c2cnn(C)c2)c1=O (stereo partly drawn) [Example 41]	39.2

1 = O=C(N[C@@H]1C[S+]([O-])C[C@@H]1O)c1cc(-c2ccc(C(F)(F)F)cc2)nn(-c2cccnc2)c1=O (single isomer, unassigned) [Example 37]
2 = C[C@@H](CS(C)(=O)=O)NC(=O)c1cc(-c2ccc(C(F)(F)F)cc2)nn(-c2cnn(C)c2)c1=O [Example 22]
3 = C[C@@H](CS(C)(=N)=O)NC(=O)c1cc(-c2ccc(C(F)(F)F)cc2)nn(-c2cnn(C)c2)c1=O (mixture of isomers) [Example 38]
4 = O=C(N[C@@H]1CS(=O)(=O)C[C@@H]1O)c1cc(-c2ccc(C(F)(F)F)cc2)nn(-c2cnsc2)c1=O (relative stereo) [Example 10]
List from greatest to least IC50. Record the ranking as a list of labels in the requested order.
1, 3, 2, 4

A = O=C(N[C@@H]1CS(=O)(=O)C[C@@H]1O)c1cc(-c2ccc(C(F)(F)F)cc2)nn(-c2cccc(F)c2)c1=O (single isomer, unassigned) [Example 15]
B = CS(=N)(=O)CCNC(=O)c1cc(-c2ccc(Cl)cc2)nn(-c2cccc(F)c2)c1=O (stereo not drawn) [Example 52]
C = O=C(N[C@@H]1C[S+]([O-])C[C@@H]1O)c1cc(-c2ccc(C(F)(F)F)cc2)nn(-c2cccnc2)c1=O (single isomer, unassigned) [Example 34]
Provide the items ranked by increasing IC50. Record the ranking as a list of labels in the requested order.
A, C, B

----------
- Tested system: AHR (Homo sapiens)
- Assay remarks: In vitro assay 1: AHR-luc transactivation assay, antagonism in human cell line (U87 glioblastoma cells, kynurenic acid prestimulated)
- Format: cell-based
- Design: U87 glioblastoma cells (ATCC) endogenously expressing AHR; host or cells: U87 glioblastoma cells, stably transfected with DRE-firefly luciferase and renilla reporter constructs only
- Condition: firefly luciferase DRE reporter, 150 μM kynurenic acid, 20 hours, read-out: Assay 1: AHR-luc Hum Antagonism IC50
pIC50: −log10 of the molar value.
Observable: pIC50

P = O=C(N[C@H]1CS(=O)(=O)C[C@H]1O)c1cc(-c2ccc(Cl)cc2)nn(-c2cccc(F)c2)c1=O (single isomer, unassigned) [Example 56]
Q = O=C(N[C@@H]1C[S+]([O-])C[C@@H]1O)c1cc(-c2ccc(Cl)cc2)nn(-c2cccc(F)c2)c1=O (single isomer, unassigned; (+)) [Example 31]
R = C[C@@H](C[S+](C)[O-])NC(=O)c1cc(-c2ccc(C(F)(F)F)cc2)nn(-c2cnn(C)c2)c1=O (single isomer, unassigned) [Example 24]
Rank the 3 molecules shown above by pIC50, smallest number first. Record the ranking as a list of labels in the requested order.
Q, P, R

----------
- Tested system: AHR (Homo sapiens)
- Assay remarks: In vitro assay 1: AHR-luc transactivation assay, antagonism in human cell line (U87 glioblastoma cells, kynurenic acid prestimulated)
- Format: cell-based
- Set-up: U87 glioblastoma cells (ATCC) endogenously expressing AHR; host or cells: U87 glioblastoma cells, stably transfected with DRE-firefly luciferase and renilla reporter constructs only
- Condition: firefly luciferase DRE reporter, 150 μM kynurenic acid, 20 hours, read-out: Assay 1: AHR-luc Hum Antagonism IC50
pIC50: −log10 of the molar value.
Observable: pIC50

Compound	pIC50
O=C(N[C@@H]1C[S+]([O-])C[C@@H]1O)c1cc(-c2ccc(Cl)cc2)nn(-c2cccc(F)c2)c1=O (single isomer, unassigned) [Example 29]	6.52
O=C(N[C@@H]1CS(=O)(=O)C[C@@H]1O)c1cc(-c2ccc(C(F)(F)F)cc2)nn(-c2cccc(F)c2)c1=O (single isomer, unassigned) [Example 14]	8.19

I = O=C(N[C@@H]1CCS(=O)(=O)C1)c1cc(-c2ccc(Cl)cc2)nn(-c2cccc(F)c2)c1=O (stereo in doubt) [Example 58]
II = O=C(N[C@@H]1CS(=O)(=O)C[C@@H]1O)c1cc(-c2ccc(C(F)(F)F)cc2)nn(-c2cccc(F)c2)c1=O (relative stereo) [Example 13]
III = O=C(N[C@@H]1C[S+]([O-])C[C@@H]1O)c1cc(-c2ccc(C(F)(F)F)cc2)nn(-c2cccnc2)c1=O (single isomer, unassigned) [Example 36]
List from greatest to least pIC50. Record the ranking as a list of labels in the requested order.
II, I, III
(II: 8.25, I: 6.84, III: 6.53)

----------
- Tested system: UniProt P35869
- Assay remarks: In vitro assay 1: AHR-luc transactivation assay, antagonism in human cell line (U87 glioblastoma cells, kynurenic acid prestimulated)
- Assay type: cell-based
- Set-up: U87 glioblastoma cells (ATCC) endogenously expressing AHR; host or cells: U87 glioblastoma cells, stably transfected with DRE-firefly luciferase and renilla reporter constructs only
- Condition: firefly luciferase DRE reporter, 150 μM kynurenic acid, 20 hours, read-out: Assay 1: AHR-luc Hum Antagonism IC50
Observable: IC50 (nM)

These recorded examples may help you get a feel for the data.
Compound	IC50 (nM)
C[C@@H](CS(C)(=N)=O)NC(=O)c1cc(-c2ccc(C(F)(F)F)cc2)nn(-c2cnn(C)c2)c1=O (single isomer, unassigned) [Example 40]	80.3
C[C@@H](C[S+](C)[O-])NC(=O)c1cc(-c2ccc(Cl)cc2)nn(-c2cnn(C)c2)c1=O (stereo partly shown) [Example 49]	26.4
O=C(N[C@@H]1C[S+]([O-])C[C@@H]1O)c1cc(-c2ccc(Cl)cc2)nn(-c2cccc(F)c2)c1=O (single isomer, unassigned) [Example 26]	33.3
C[C@@H](CS(C)(=N)=O)NC(=O)c1cc(-c2ccc(Cl)cc2)nn(-c2cccc(F)c2)c1=O (single isomer, unassigned) [Example 8]	140

A = CSC[C@H](C)NC(=O)c1cc(-c2ccc(Cl)cc2)nn(-c2cnn(C)c2)c1=O [Example 48]
B = C[S+]([O-])CCNC(=O)c1cc(-c2ccc(Cl)cc2)nn(-c2cccc(F)c2)c1=O (stereo not shown) [Example 51]
C = N=S1(=O)C[C@H](O)[C@H](NC(=O)c2cc(-c3ccc(Cl)cc3)nn(-c3cccc(F)c3)c2=O)C1 (single isomer, unassigned) [Example 45]
List from greatest to least IC50. Record the ranking as a list of labels in the requested order.
B, C, A

----------
- Tested system: AHR (Homo sapiens)
- Assay remarks: In vitro assay 3: AHR-regulated CYP1A1 expression in human cell line (U937, quantitative PCR)
- Format: cell-based
- Condition: human monocytic U937 cells, CYP1A1 expression induced with 200 μM KA, 6 hours, qPCR; read-out: Assay 3: Hum CYP1A1 Antagonism IC50
Observable: IC50 (nM)

Compound	U	IC50
O=C(N[C@H]1CS(=O)(=O)C[C@H]1O)c1cc(-c2ccc(Cl)cc2)nn(-c2cccc(F)c2)c1=O (racemic) [Example 55]	nM	27
CSC[C@H](C)NC(=O)c1cc(-c2ccc(Cl)cc2)nn(-c2cnn(C)c2)c1=O	nM	29.9
O=C(N[C@@H]1CS(=O)(=O)C[C@@H]1O)c1cc(-c2ccc(C(F)(F)F)cc2)nn(-c2cccc(F)c2)c1=O (relative stereo) [Example 13]	nM	18.6

1 = O=C(N[C@H]1CS(=O)(=O)C[C@H]1O)c1cc(-c2ccc(Cl)cc2)nn(-c2cccc(F)c2)c1=O (single isomer, unassigned) [Example 57]
2 = N=S1(=O)C[C@H](O)[C@H](NC(=O)c2cc(-c3ccc(Cl)cc3)nn(-c3cccc(F)c3)c2=O)C1 (single isomer, unassigned)
3 = O=C(N[C@@H]1CS(=O)(=O)C[C@@H]1O)c1cc(-c2ccc(C(F)(F)F)cc2)nn(-c2cccc(F)c2)c1=O (single isomer, unassigned) [Example 15]
4 = C[C@@H](C[S+](C)[O-])NC(=O)c1cc(-c2ccc(C(F)(F)F)cc2)nn(-c2cnn(C)c2)c1=O (single isomer, unassigned)
Provide the items ranked by increasing IC50. Record the ranking as a list of labels in the requested order.
4, 1, 3, 2
(4: 7.56 nM, 1: 17.1 nM, 3: 36.9 nM, 2: 756 nM)
